Biological target: IKKε (Homo sapiens (Human), UniProt Q14164)
Sequence (Q14164 whole entry): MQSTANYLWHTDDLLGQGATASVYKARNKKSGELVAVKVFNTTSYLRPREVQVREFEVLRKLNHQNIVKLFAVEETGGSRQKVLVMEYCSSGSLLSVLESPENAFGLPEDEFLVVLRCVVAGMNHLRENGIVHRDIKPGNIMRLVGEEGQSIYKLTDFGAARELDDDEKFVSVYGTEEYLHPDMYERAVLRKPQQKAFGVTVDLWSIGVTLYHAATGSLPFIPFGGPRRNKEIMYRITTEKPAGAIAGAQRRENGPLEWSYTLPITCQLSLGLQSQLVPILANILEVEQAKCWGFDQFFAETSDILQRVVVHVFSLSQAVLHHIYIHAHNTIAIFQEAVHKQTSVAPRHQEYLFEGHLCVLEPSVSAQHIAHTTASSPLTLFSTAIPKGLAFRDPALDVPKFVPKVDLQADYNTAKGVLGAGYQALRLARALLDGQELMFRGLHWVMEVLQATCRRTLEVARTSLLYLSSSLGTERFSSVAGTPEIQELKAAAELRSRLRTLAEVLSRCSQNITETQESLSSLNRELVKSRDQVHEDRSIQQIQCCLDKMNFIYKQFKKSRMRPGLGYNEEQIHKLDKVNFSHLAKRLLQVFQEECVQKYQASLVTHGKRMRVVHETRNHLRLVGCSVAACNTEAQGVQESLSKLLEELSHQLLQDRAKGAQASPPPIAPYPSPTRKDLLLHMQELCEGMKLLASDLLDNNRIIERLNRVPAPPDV
Assay: IKKε TR-FRET enzymatic assay
Format: biochemical
Conditions: read-out: IKKe IC50
MEASURED ATTRIBUTE: pIC50
Numbers only, as −log10 of the molar value.

COc1cc(Nc2ncnc(-c3ccc(O[C@H]4CCN(C(=O)CO)C[C@H]4F)c(C#N)c3)n2)ccc1N1CCN(C2COC2)CC1    9.00
N#Cc1cc(-c2ncnc(Nc3ccc(C4CCN(C5COC5)CC4)cc3)n2)ccc1OC1CCN(C(=O)CO)CC1    8.52
C[C@H]1CN(C2COC2)CCN1c1ccc(Nc2ncnc(-c3ccc(O[C@H]4CCN(C(=O)c5cnn[nH]5)CC4(F)F)c(C#N)c3)n2)cc1    9.00
Cc1cc(N2CCOCC2)ccc1Nc1ncnc(-c2ccc(OC3CCOCC3)c(C#N)c2)n1    6.79
C[C@H](O)C(=O)N1CC[C@H](Oc2ccc(-c3ncnc(Nc4ccc(C5CCOCC5)cc4)n3)cc2C#N)[C@H](F)C1    8.70

Provide pIC50 values for the following items, in order.
1. N#Cc1cc(-c2ncnc(Nc3ccc(N4CCN(C5COC5)CC4)cc3)n2)ccc1O[C@H]1CCN(C(=O)CCO)C[C@H]1F
2. CC1(C)C(=O)Nc2ccc(Nc3ncnc(-c4ccc(OC5CCOCC5)c(C#N)c4)n3)cc21
3. Cc1nn(C)c2cc(Nc3ncnc(-c4ccc(O[C@H]5CCN(C(=O)[C@H](C)O)C[C@H]5F)c(C#N)c4)n3)ccc12
4. C[C@H](O)C(=O)N1CC[C@H](Oc2ccc(-c3ncnc(Nc4ccc(N5CCO[C@H](C(N)=O)C5)cc4)n3)cc2C#N)[C@H](F)C1

8.15
8.05
8.30
8.70

Provide pIC50 values for the following items, in order.
1. N#Cc1cc(-c2ncnc(Nc3cccc(N4CCOCC4)c3)n2)ccc1O[C@@H]1CCNC1
2. N#Cc1cc(-c2ncnc(Nc3ccc(N4CCN(C5COC5)CC4)cc3)n2)ccc1O[C@H]1CCN(C(=O)C(F)F)C[C@H]1F
3. C[C@H](O)C(=O)N1CC[C@H](Oc2ccc(-c3ncnc(Nc4ccc(C(=O)N5CCN(C)CC5)cc4)n3)cc2C#N)[C@H](F)C1
4. C[C@H](O)C(=O)N1CC[C@H](Oc2ccc(-c3ncnc(Nc4ccc(N5CCO[C@H](CO)C5)cc4)n3)cc2C#N)[C@H](F)C1
5. N#Cc1cc(-c2ncnc(Nc3ccc(N4CCN(C5COC5)CC4)cc3)n2)ccc1O[C@H]1CCN(C(=O)c2nccnc2N)C[C@H]1F
6. N#Cc1cc(-c2ncnc(Nc3ccc(N4CCN(C5COC5)CC4)cc3)n2)ccc1OC1CCC2(CC1)OCCO2

1: 7.28; 2: 8.70; 3: 8.70; 4: 9.00; 5: 7.24; 6: 7.12

Provide pIC50 values for the following items, in order.
1. CS(=O)(=O)C1CN(c2ccc(-c3ncnc(Nc4ccc(N5CCN(C6COC6)CC5)cc4)n3)cc2C#N)C1
2. C[C@H]1CN(C2COC2)CCN1c1ccc(Nc2ncnc(-c3ccc(O[C@H]4CCN(C(=O)c5cnn[nH]5)C[C@H]4F)c(C#N)c3)n2)cc1
3. N#Cc1cc(-c2ncnc(Nc3ccc(N4CCN(C5COC5)CC4)cc3)n2)ccc1N1CC[C@H](O)C1

[7.28, 8.70, 7.57]

Provide pIC50 values for the following items, in order.
1. N#Cc1cc(-c2ncnc(Nc3ccc(N4CCN(C5COC5)CC4)cc3)n2)ccc1O[C@H]1CCN(C(=O)c2cnc[nH]2)CC1(F)F
2. C[C@H]1CN(C2COC2)CCN1c1ccc(Nc2ncnc(-c3ccc(O[C@H]4CCN(C(=O)CCO)CC4(F)F)c(C#N)c3)n2)cc1
3. N#Cc1cc(-c2ncnc(Nc3ccc(N4CCN(C5COC5)CC4)cc3)n2)ccc1O[C@H]1CCN(C(=O)c2nc(N)n[nH]2)C[C@H]1F

9.00
8.30
8.70

Provide pIC50 values for the following items, in order.
1. C[C@H](O)C(=O)N1CC[C@H](Oc2ccc(-c3ncnc(Nc4ccc(N5CCN(C6COC6)CC5)c(OC(F)F)c4)n3)cc2C#N)[C@H](F)C1
2. N#Cc1cc(-c2ncnc(Nc3ccc(C(=O)NC4COC4)cc3)n2)ccc1OC1CCOCC1
3. CN1CCC(c2ccc(Nc3ncnc(-c4ccc(OC5CCOCC5)c(C#N)c4)n3)cc2)CC1
4. N#Cc1cc(-c2ncnc(Nc3ccc4oc(=O)[nH]c4c3)n2)ccc1OC1CCOCC1

1. 9.00
2. 7.92
3. 8.52
4. 7.33
